Data provenance is PubChem BioAssay AID1445.

Assayed System: Aminopeptidase N (Plasmodium falciparum (isolate 3D7))
Test Description: malaria alanyl aminopeptidase activity blockers – biochemical, fluorogenic H-Leu-NHMec substrate, 1536-well (AID 1445);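 note: plate controls were DMSO full reaction for no effect and no enzyme background for full effect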
Conditions: recombinant M1AAP, H-Leu-NHMec fluorogenic kinetic assay; at 30 µM, stronger effect = higher value unless noted
About 910 (0.41%) of roughly 220,000 compounds were called active. This is one part of a sample in which actives are shown more often than they occur. Results with a measured potency or affinity are listed apart.
Observable: inhibition (%)
Give just the number in %; leave the unit off.

Prompt line: // fetch Aminopeptidase N (Plasmodium falciparum (isolate 3D7)) inhibition for Cc1ccc(N(CC(=O)NN=C2CCN(C)CC2)S(=O)(=O)c2ccccc2)c(C)c1
Response line: -0.06

Prompt line: // fetch Aminopeptidase N (Plasmodium falciparum (isolate 3D7)) inhibition for COc1cccc(OC)c1OCCNCCO
Response line: 9.5

Prompt line: // fetch Aminopeptidase N (Plasmodium falciparum (isolate 3D7)) inhibition for COc1ccc(C2NC(=S)NC(C)=C2C(=O)N2CCOCC2)cc1 (stereo unspecified)
Response line: 0.92

Prompt line: // fetch Aminopeptidase N (Plasmodium falciparum (isolate 3D7)) inhibition for Cc1ccc(CCNC(=O)c2cc(C)nn2-c2ccccc2)cc1
Response line: 0.72

Prompt line: // fetch Aminopeptidase N (Plasmodium falciparum (isolate 3D7)) inhibition for Cc1ccc(-n2c(-c3ccco3)n[nH]c2=S)cc1
Response line: 0.43

Prompt line: // fetch Aminopeptidase N (Plasmodium falciparum (isolate 3D7)) inhibition for CCC1=NN2C(=N)/C(=C\c3cccn3-c3ccc(Cl)cc3)C(=O)N=C2S1
Response line: 8.09

Prompt line: // fetch Aminopeptidase N (Plasmodium falciparum (isolate 3D7)) inhibition for O=C(NC1CCCCC1)c1ccc(CNc2ccccc2)o1
Response line: 3.72

Prompt line: // fetch Aminopeptidase N (Plasmodium falciparum (isolate 3D7)) inhibition for COc1cccc(-n2c(C)cc(/C=C3/C(=N)N4C(=NC3=O)SN=C4S(C)(=O)=O)c2C)c1
Response line: 16.2

Prompt line: // fetch Aminopeptidase N (Plasmodium falciparum (isolate 3D7)) inhibition for CCN(CC)C(=O)c1sc2nc(-c3cccs3)cc(-c3cccs3)c2c1N
Response line: 7.47

Prompt line: // fetch Aminopeptidase N (Plasmodium falciparum (isolate 3D7)) inhibition for CC(=O)Cc1nsc(NC(=O)c2ccco2)n1
Response line: 0.74

Prompt line: // fetch Aminopeptidase N (Plasmodium falciparum (isolate 3D7)) inhibition for Cc1ccc(-c2cc(-c3ccccc3)c3c(N)c(S(C)(=O)=O)sc3n2)cc1
Response line: 14.5

Prompt line: // fetch Aminopeptidase N (Plasmodium falciparum (isolate 3D7)) inhibition for Cc1ccn2c(Nc3ccc4c(c3)OCO4)c(-c3ccccn3)nc2c1
Response line: 12.3

Prompt line: // fetch Aminopeptidase N (Plasmodium falciparum (isolate 3D7)) inhibition for CCC(C)N1C(=O)/C(=C/c2c(NCCCOC(C)C)nc3c(C)cccn3c2=O)SC1=S (stereo unspecified)
Response line: 10.2

Prompt line: // fetch Aminopeptidase N (Plasmodium falciparum (isolate 3D7)) inhibition for CN(CC(=O)Nc1cccc2ccccc12)C(=O)/C=C/c1cccs1
Response line: 16.9

Prompt line: // fetch Aminopeptidase N (Plasmodium falciparum (isolate 3D7)) inhibition for C=CCn1c(N)cc(=O)nc1SCC(=O)NC(C)c1ccccc1 (stereo unspecified)
Response line: -2.4

Prompt line: // fetch Aminopeptidase N (Plasmodium falciparum (isolate 3D7)) inhibition for CC(C)(C)c1ccc(SCCc2ccccn2)cc1
Response line: 0.53

Prompt line: // fetch Aminopeptidase N (Plasmodium falciparum (isolate 3D7)) inhibition for O=C(Nc1ccccn1)c1cccs1
Response line: 3.97

Prompt line: // fetch Aminopeptidase N (Plasmodium falciparum (isolate 3D7)) inhibition for CCc1cccc(CC)c1NC(=O)COn1nnc2ccc(C(F)(F)F)cc21
Response line: -1.32

Prompt line: // fetch Aminopeptidase N (Plasmodium falciparum (isolate 3D7)) inhibition for CCC1=NN2C(=N)/C(=C\c3cccn3-c3ccc(Br)cc3)C(=O)N=C2S1
Response line: 4.13

Prompt line: // fetch Aminopeptidase N (Plasmodium falciparum (isolate 3D7)) inhibition for CCOc1ccccc1Nc1nnc(SCC(=O)Nc2ccc3[nH]c(=O)[nH]c3c2)s1
Response line: 1.06

Prompt line: // fetch Aminopeptidase N (Plasmodium falciparum (isolate 3D7)) inhibition for O=C(CCC1N=C2c3ccccc3N=C(SCc3ccc(Cl)cc3)N2C1=O)NCc1ccco1 (stereo unspecified)
Response line: 11.4

Prompt line: // fetch Aminopeptidase N (Plasmodium falciparum (isolate 3D7)) inhibition for COCc1cc(C)nc(OCC(=O)N/N=C\c2cc(C)n(-c3cccc(C(F)(F)F)c3)c2C)c1C#N
Response line: 6.82

Prompt line: // fetch Aminopeptidase N (Plasmodium falciparum (isolate 3D7)) inhibition for CCCCNC(=O)CSc1nc2ccsc2c(=O)n1CCCC(=O)NCCc1ccc(S(N)(=O)=O)cc1
Response line: 4.74

Prompt line: // fetch Aminopeptidase N (Plasmodium falciparum (isolate 3D7)) inhibition for O=C(Nc1ccccc1C(=O)NC(Cc1c[nH]c2ccccc12)C(=O)O)c1ccco1 (stereo unspecified)
Response line: 7.54

Prompt line: // fetch Aminopeptidase N (Plasmodium falciparum (isolate 3D7)) inhibition for CCCN1C(=O)/C(=C/c2c(NCCCOC(C)C)nc3c(C)cccn3c2=O)SC1=S
Response line: -6.67

Prompt line: // fetch Aminopeptidase N (Plasmodium falciparum (isolate 3D7)) inhibition for Cc1cc(C(=O)OCC(=O)NCc2ccc(Cl)cc2)c(C)o1
Response line: -6.7

Prompt line: // fetch Aminopeptidase N (Plasmodium falciparum (isolate 3D7)) inhibition for COc1ccc(C(=O)Nc2nc3nccc(-c4ccccc4)n3n2)cc1
Response line: 0.22

Prompt line: // fetch Aminopeptidase N (Plasmodium falciparum (isolate 3D7)) inhibition for CCOC(=O)C(Cc1c[nH]c2ccccc12)NC(=O)c1ccco1 (stereo unspecified)
Response line: -3.49

Prompt line: // fetch Aminopeptidase N (Plasmodium falciparum (isolate 3D7)) inhibition for CCOc1ccc(-n2c(C)cc(/C=C3/C(=N)N4C(=NC3=O)SN=C4S(C)(=O)=O)c2C)cc1
Response line: 21.4

Prompt line: // fetch Aminopeptidase N (Plasmodium falciparum (isolate 3D7)) inhibition for CCCN1C(=O)/C(=C/c2c(NCCCOCC)nc3c(C)cccn3c2=O)SC1=S
Response line: -3.51

Prompt line: // fetch Aminopeptidase N (Plasmodium falciparum (isolate 3D7)) inhibition for NC(=O)C1CCCN(C(=S)Nc2ccccc2)C1 (stereo unspecified)
Response line: 0.97
